The reported measurements were obtained from the NIST ThermoML archive (doi:10.1016/j.jct.2017.08.004).

Assay: molar heat capacity at constant pressure
Details: 247.15 K; 101.33 kPa; Crystal; Small sample (50 mg) DSC
property: molar heat capacity at constant pressure (J/K/mol)
Your answer is read as J/K/mol, so omit the unit and give the number.

Look over these answered cases.
[[record]]
compound = "OC[C@@H](O)C(O)[C@H](O)CO"
quantitative_readout = 165.5

[[record]]
compound = "OC[C@H](O)C(O)[C@@H](O)CO [L-(-)-arabitol]"
quantitative_readout = 170.55

[[record]]
compound = "O[C@H]1[C@H](O)[C@@H](O)[C@H](O)[C@@H](O)[C@H]1O [cis-1,2,3,5-trans-4,6-cyclohexanehexol]"
quantitative_readout = 178.89


// query molar heat capacity at constant pressure value for entry OC[C@@H](O)[C@@H](O)CO
137.31

Bench note: what molar heat capacity at constant pressure did OC[C@@H](O)[C@@H](O)[C@H](O)[C@H](O)CO show?
192.19

# lookup: molar heat capacity at constant pressure of OC[C@@H](O)[C@H](O)[C@@H](O)CO
172.62

###

Experiment: molar heat capacity at constant pressure
Conditions: 339.15 K; 101.33 kPa; Crystal; Small sample (50 mg) DSC
Reported molar heat capacity at constant pressure values follow for various compounds
Only the number, expressed in J/K/mol, is required.

Please review the following examples before continuing.
[[record]]
compound = "OC[C@@H](O)C(O)[C@H](O)CO [D-arabitol]"
quantitative_readout = 239.77

[[record]]
compound = "OC[C@@H](O)[C@H](O)[C@@H](O)CO [xylitol]"
quantitative_readout = 244.05

[[record]]
compound = "O[C@H]1[C@H](O)[C@@H](O)[C@H](O)[C@@H](O)[C@H]1O [cis-1,2,3,5-trans-4,6-cyclohexanehexol]"
quantitative_readout = 253.75


Look up molar heat capacity at constant pressure: OC[C@@H](O)[C@@H](O)[C@H](O)[C@H](O)CO [D-mannitol]
266.62

Using the record for OC[C@@H](O)[C@@H](O)CO [meso-1,2,3,4-butanetetrol] , report its molar heat capacity at constant pressure.
189.49

###

Conditions: 150 K; 101.33 kPa; Crystal; relaxation calorimetry
# label = Satisfied if molar entropy >= 100 J/K/mol else Not satisfied

Study these solved cases before continuing.
[[record]]
compound = "O[C@H]1[C@H](O)[C@@H](O)[C@H](O)[C@@H](O)[C@H]1O [cis-1,2,3,5-trans-4,6-cyclohexanehexol]"
discrete_label = "Not satisfied"

[[record]]
compound = "OC[C@@H](O)[C@@H](O)CO"
discrete_label = "Not satisfied"

[[record]]
compound = "OC[C@@H](O)C(O)[C@H](O)CO"
discrete_label = "Not satisfied"


Assess whether reported molar entropy for OC[C@@H](O)[C@H](O)[C@@H](O)CO sits at 100 J/K/mol or higher.
Not satisfied

Is the recorded value of molar entropy equal to or greater than 100 J/K/mol for this compound? OC[C@@H](O)[C@@H](O)[C@H](O)[C@H](O)CO
Satisfied

###

Experiment: molar heat capacity at constant pressure
Details: 249.15 K; 101.33 kPa; Crystal; Small sample (50 mg) DSC
property: molar heat capacity at constant pressure (J/K/mol)
Give just the number in J/K/mol; leave the unit off.

Worked examples follow.
[[record]]
molecule = "O[C@H]1[C@H](O)[C@@H](O)[C@H](O)[C@@H](O)[C@H]1O [cis-1,2,3,5-trans-4,6-cyclohexanehexol]"
quantitative_readout = 180.32

[[record]]
molecule = "OC[C@@H](O)[C@@H](O)[C@H](O)[C@H](O)CO"
quantitative_readout = 193.73

[[record]]
molecule = "OC[C@@H](O)C(O)[C@H](O)CO"
quantitative_readout = 167

[[record]]
molecule = "OC[C@@H](O)[C@@H](O)CO"
quantitative_readout = 138.21

[[record]]
molecule = "OC[C@H](O)C(O)[C@@H](O)CO [L-(-)-arabitol]"
quantitative_readout = 171.85


# input for lookup
Query (molecule): OC[C@@H](O)[C@H](O)[C@@H](O)CO ; field requested: molar heat capacity at constant pressure
173.97

###

Entries annotated with measured molar heat capacity at constant pressure
Assay: molar heat capacity at constant pressure
Settings: 311.15 K; 101.33 kPa; Crystal; Small sample (50 mg) DSC
Number only, in J/K/mol; omit the unit.

For orientation, consider the following solved cases.
[[record]]
compound = "OC[C@@H](O)[C@@H](O)[C@H](O)[C@H](O)CO"
quantitative_readout = 242.22

[[record]]
compound = "OC[C@H](O)C(O)[C@@H](O)CO [L-(-)-arabitol]"
quantitative_readout = 218.22

[[record]]
compound = "OC[C@@H](O)[C@@H](O)CO"
quantitative_readout = 173.14

[[record]]
compound = "OC[C@@H](O)C(O)[C@H](O)CO"
quantitative_readout = 212.09

[[record]]
compound = "OC[C@@H](O)[C@H](O)[C@@H](O)CO"
quantitative_readout = 220.76


Given O[C@H]1[C@H](O)[C@@H](O)[C@H](O)[C@@H](O)[C@H]1O [cis-1,2,3,5-trans-4,6-cyclohexanehexol] , state its recorded molar heat capacity at constant pressure.
229.32

###

Test: molar heat capacity at constant pressure
Details: 260.15 K; 101.33 kPa; Crystal; Small sample (50 mg) DSC
Each item that follows carries a reported molar heat capacity at constant pressure.
Only the number, expressed in J/K/mol, is required.

See these solved cases before continuing.
[[record]]
compound = "OC[C@@H](O)[C@@H](O)[C@H](O)[C@H](O)CO [D-mannitol]"
property = "molar heat capacity at constant pressure"
quantitative_readout = 202.15

[[record]]
compound = "OC[C@@H](O)C(O)[C@H](O)CO [D-arabitol]"
property = "molar heat capacity at constant pressure"
quantitative_readout = 174.49

[[record]]
compound = "OC[C@@H](O)[C@H](O)[C@@H](O)CO [xylitol]"
property = "molar heat capacity at constant pressure"
quantitative_readout = 182.15

[[record]]
compound = "O[C@H]1[C@H](O)[C@@H](O)[C@H](O)[C@@H](O)[C@H]1O [cis-1,2,3,5-trans-4,6-cyclohexanehexol]"
property = "molar heat capacity at constant pressure"
quantitative_readout = 188.81

[[record]]
compound = "OC[C@@H](O)[C@@H](O)CO [meso-1,2,3,4-butanetetrol]"
property = "molar heat capacity at constant pressure"
quantitative_readout = 144.21


Please give the measured molar heat capacity at constant pressure for this compound: OC[C@H](O)C(O)[C@@H](O)CO [L-(-)-arabitol]
180.04

###

Test: molar heat capacity at constant pressure
Conditions: 213.15 K; 101.33 kPa; Crystal; Small sample (50 mg) DSC
± gives the expanded uncertainty stated by the source.
Consider the following molecules and their measured molar heat capacity at constant pressure readings.
Please answer using a numeric value trailed by its unit.

Worked cases, answers included:
[[record]]
molecule = "OC[C@@H](O)[C@@H](O)CO [meso-1,2,3,4-butanetetrol]"
result = "120.03 ± 14 J/K/mol"

[[record]]
molecule = "OC[C@@H](O)[C@@H](O)[C@H](O)[C@H](O)CO [D-mannitol]"
result = "167.09 ± 27 J/K/mol"

[[record]]
molecule = "OC[C@@H](O)[C@H](O)[C@@H](O)CO [xylitol]"
result = "149.76 ± 9.2 J/K/mol"


Name the recorded molar heat capacity at constant pressure for OC[C@H](O)C(O)[C@@H](O)CO [L-(-)-arabitol] .
148.33 ± 30 J/K/mol

I'd like to know its molar heat capacity at constant pressure. The molecule in question is O[C@H]1[C@H](O)[C@@H](O)[C@H](O)[C@@H](O)[C@H]1O [cis-1,2,3,5-trans-4,6-cyclohexanehexol]
153.21 ± 22 J/K/mol

Give its molar heat capacity at constant pressure value. Item: OC[C@@H](O)C(O)[C@H](O)CO [D-arabitol]
143.53 ± 12 J/K/mol

###

Test: molar heat capacity at constant pressure
Conditions: 296.15 K; 101.33 kPa; Crystal; Small sample (50 mg) DSC
property: molar heat capacity at constant pressure (J/K/mol)
Unit J/K/mol implied. Number only.

[[record]]
molecule = "O[C@H]1[C@H](O)[C@@H](O)[C@H](O)[C@@H](O)[C@H]1O [cis-1,2,3,5-trans-4,6-cyclohexanehexol]"
quantitative_readout = 216.01

[[record]]
molecule = "OC[C@@H](O)[C@@H](O)CO"
quantitative_readout = 163.64

[[record]]
molecule = "OC[C@@H](O)C(O)[C@H](O)CO"
quantitative_readout = 199.7

[[record]]
molecule = "OC[C@@H](O)[C@@H](O)[C@H](O)[C@H](O)CO"
quantitative_readout = 228.45

[[record]]
molecule = "OC[C@H](O)C(O)[C@@H](O)CO [L-(-)-arabitol]"
quantitative_readout = 205.37


Kindly consider the entry below.
Which value of molar heat capacity at constant pressure has been reported for OC[C@@H](O)[C@H](O)[C@@H](O)CO in the records?
207.76
